experiment: in vivo; details: Sprague-Dawley, rat, brain and plasma
Entries and their Kp uu values follow.
Give the figure by itself; no unit, no explanation.

| Compound | Kp uu |
| --- | --- |
| NCC(CC(=O)O)c1ccc(Cl)cc1 (stereo not given) [BACLOFEN] | 1.62 |

QUERY: # return recorded Kp uu for input C[C@H]1COc2c(N3CCN(C)CC3)c(F)cc3c(=O)c(C(=O)O)cn1c23.C[C@H]1COc2c(N3CCN(C)CC3)c(F)cc3c(=O)c(C(=O)O)cn1c23.O [LEVOFLOXACIN]
RESULT: 1.44

QUERY: Identify the reported Kp uu for the following entry. `C=C[C@H]1C[N+]2(C)CC[C@H]1C[C@@H]2[C@@H](O)c1ccnc2ccc(OC)cc12`
RESULT: 1.06

QUERY: State its Kp uu: O=C1OC2(c3ccc(O)cc3Oc3cc(O)ccc32)c2ccccc21 [FLUORESCEIN]
RESULT: 0.74

---

system: Brain; conditions: rat, 5 h, 0.1 µM
Description: Unbound volume of distribution in Sprague-Dawley rat brain slices at 100 nM after 5 hrs
Measured Vdu by item

QUERY: Answer with the recorded Vdu for the compound listed here: Cc1nnc2n1-c1ccc(Cl)cc1C(c1ccccc1)=NC2 [ALPRAZOLAM]
RESULT: 6.5 mL/g

QUERY: Identify measured Vdu associated with O=C1c2c(O)ccc(O)c2C(=O)c2c(NCCNCCO)ccc(NCCNCCO)c21 [MITOXANTRONE]
RESULT: 1757 mL/g

QUERY: State, in one line, measured Vdu of CN1CC[C@]23c4c5ccc(O)c4O[C@H]2C(=O)CC[C@@]3(O)[C@H]1C5 [OXYMORPHONE]
RESULT: 4 mL/g

QUERY: Give me measured Vdu, please, for this compound: CC(C)NCC(O)COc1cccc2ccccc12 (stereo unspecified) [PROPRANOLOL]
RESULT: 112 mL/g

QUERY: Check the records and state Vdu for CN1CC[C@]23c4c5ccc(O[C@@H]6O[C@H](C(=O)O)[C@@H](O)[C@H](O)[C@H]6O)c4O[C@H]2[C@@H](O)C=C[C@H]3[C@H]1C5 [MORPHINE 3-GLUCURONIDE]
RESULT: 0.6 mL/g

QUERY: State its Vdu: `Cc1c(O)cccc1C(=O)N[C@@H](CSc1ccccc1)[C@H](O)CN1C[C@H]2CCCC[C@H]2C[C@H]1C(=O)NC(C)(C)C`
RESULT: 860 mL/g

QUERY: State, in one line, measured Vdu of CN(C)C(=N)N=C(N)N [METFORMIN]
RESULT: 10 mL/g

QUERY: For the compound CC1(C)O[C@@H]2[C@@H](CO[C@@]3(COS(N)(=O)=O)OC(C)(C)O[C@@H]23)O1 [TOPIRAMATE] , give its measured Vdu value.
RESULT: 3.2 mL/g

QUERY: Please report Vdu for the following compound: `C=C[C@H]1C[N+]2(C)CC[C@H]1C[C@@H]2[C@@H](O)c1ccnc2ccc(OC)cc12`
RESULT: 4.6 mL/g

QUERY: Please supply the value of reported Vdu for the item `C[n+]1ccc(-c2ccccc2)cc1`
RESULT: 157 mL/g

QUERY: Read the entry CN1CC[C@]23c4c5ccc(O)c4O[C@H]2[C@@H](O[C@@H]2O[C@H](C(=O)O)[C@@H](O)[C@H](O)[C@H]2O)C=C[C@H]3[C@H]1C5 [MORPHINE GLUCURONIDE] and write its reported Vdu.
RESULT: 0.98 mL/g

---

assay: in vivo; settings: Sprague-Dawley, rat, brain
// Kp uu lookup, one value per entry
Please reply with the number alone, leaving off any unit.

Past entries and their recorded results:
| Compound | Assay result |
| --- | --- |
| CO[C@@]1(NC(=O)C(C(=O)O)c2ccc(O)cc2)C(=O)N2C(C(=O)O)=C(CSc3nnnn3C)CO[C@@H]21 (stereo not given in full) | 0.46 |
| COc1cccc(C2(O)CCCCC2CN(C)C)c1 (stereo not given) | 2.25 |
| Clc1cccc(Cl)c1N=C1NCCN1 | 2.47 |
| CN/C(=N/CCSCc1nc[nH]c1C)NC#N | 1.73 |

Please turn your attention to the following entry.
QUERY: For the compound CCNC(=O)C(C(N)=O)c1ccccc1 (stereo not given) , give its reported Kp uu.
RESULT: 0.6

---

Some compounds, each annotated with its measured fraction unbound at 5 µM.
experiment: in vitro; settings: Sprague-Dawley, rat, brain homogenate

Recorded fraction unbound at 5 µM, per entry:
| Compound | Assay result |
| --- | --- |
| C[C@H]1COc2c(N3CCN(C)CC3)c(F)cc3c(=O)c(C(=O)O)cn1c23.C[C@H]1COc2c(N3CCN(C)CC3)c(F)cc3c(=O)c(C(=O)O)cn1c23.O | 0.84 |
| COc1ccc2c3c1O[C@H]1[C@@H](O)C=C[C@H]4[C@@H](C2)N(C)CC[C@@]341 | 0.62 |
| CC1(C)O[C@@H]2[C@@H](CO[C@@]3(COS(N)(=O)=O)OC(C)(C)O[C@@H]23)O1 [TOPIRAMATE] | 0.61 |
| Clc1cccc(Cl)c1N=C1NCCN1 | 0.42 |

Would you kindly look at the next entry?
QUERY: Give a short answer stating reported fraction unbound at 5 µM for `CN(C)C(=N)N=C(N)N` .
RESULT: 0.95

---

# fraction unbound at 5 µM annotations
experiment: in vitro; conditions: Sprague-Dawley, rat, brain homogenate
Would you mind answering with just the numeric figure?

Use these answered entries as a reference point.
| Molecule | Assay result |
| --- | --- |
| O=C1c2c(O)ccc(O)c2C(=O)c2c(NCCNCCO)ccc(NCCNCCO)c21 | 0.0046 |
| CN/C(=N/CCSCc1nc[nH]c1C)NC#N | 0.76 |

QUERY: Quote fraction unbound at 5 µM reported for CC(C)NCC(O)COc1cccc2ccccc12 (centres undefined) please.
RESULT: 0.029

QUERY: Identify measured fraction unbound at 5 µM associated with `CC[N+](CC)(CC)CC`
RESULT: 1

---

system: Brain; conditions: rat, 5 h, 0.1 µM
Result type: Vdu
Could you kindly put the unit after your number?

| Compound | Vdu |
| --- | --- |
| O=C(O)Cc1ccccc1Nc1c(Cl)cccc1Cl [DICLOFENAC] | 15 mL/g |

QUERY: Find the measured Vdu of NCC(CC(=O)O)c1ccc(Cl)cc1 (centres undefined) [BACLOFEN] and report it.
RESULT: 1.7 mL/g

QUERY: Tell us which Vdu value is on record for CC(=O)O[C@H]1C(=O)[C@@]2(C)[C@H]([C@H](OC(=O)c3ccccc3)[C@]3(O)C[C@H](OC(=O)[C@H](O)[C@@H](NC(=O)c4ccccc4)c4ccccc4)C(C)=C1C3(C)C)[C@]1(OC(C)=O)CO[C@@H]1C[C@@H]2O [PACLITAXEL]
RESULT: 769 mL/g

QUERY: Please list Vdu recorded for the compound CN(C)C(=O)Oc1cccc([N+](C)(C)C)c1 [NEOSTIGMINE]
RESULT: 3.2 mL/g

---

test: in vitro; conditions: Sprague-Dawley, rat, brain homogenate
A collection of compounds and their measured fraction unbound at 5 µM

Here are 6 compounds together with their reported answers.
| Compound | Result type | Assay result |
| --- | --- | --- |
| CC(=O)O[C@H]1C(=O)[C@@]2(C)[C@H]([C@H](OC(=O)c3ccccc3)[C@]3(O)C[C@H](OC(=O)[C@H](O)[C@@H](NC(=O)c4ccccc4)c4ccccc4)C(C)=C1C3(C)C)[C@]1(OC(C)=O)CO[C@@H]1C[C@@H]2O [PACLITAXEL] | fraction unbound at 5 µM | 0.012 |
| O=C(O)c1ccccc1O [SALICYLIC ACID] | fraction unbound at 5 µM | 0.63 |
| CN(C)C(=O)C(CCN1CCC(O)(c2ccc(Cl)cc2)CC1)(c1ccccc1)c1ccccc1 [LOPERAMIDE] | fraction unbound at 5 µM | 0.008 |
| CCNC(=O)C(C(N)=O)c1ccccc1 (stereo unspecified) | fraction unbound at 5 µM | 0.65 |
| C=CCOc1ccccc1OCC(O)CNC(C)C (stereo unspecified) [OXPRENOLOL] | fraction unbound at 5 µM | 0.28 |
| CN1CC[C@]23c4c5ccc(O[C@@H]6O[C@H](C(=O)O)[C@@H](O)[C@H](O)[C@H]6O)c4O[C@H]2[C@@H](O)C=C[C@H]3[C@H]1C5 [MORPHINE 3-GLUCURONIDE] | fraction unbound at 5 µM | 0.97 |

QUERY: Quickly give me recorded fraction unbound at 5 µM for Cc1nnc2n1-c1ccc(Cl)cc1C(c1ccccc1)=NC2 [ALPRAZOLAM]
RESULT: 0.16

QUERY: Indicate its recorded fraction unbound at 5 µM; the compound in question is C=CCc1ccccc1OCC(O)CNC(C)C (stereo unspecified) [ALPRENOLOL]
RESULT: 0.057

QUERY: Specify fraction unbound at 5 µM for CN(C)C(=O)Oc1cccc([N+](C)(C)C)c1 [NEOSTIGMINE] and stop.
RESULT: 0.95

QUERY: Tell me measured fraction unbound at 5 µM for Nc1nnc(-c2cccc(Cl)c2Cl)c(N)n1 [LAMOTRIGINE] please.
RESULT: 0.21

QUERY: Give recorded fraction unbound at 5 µM. O=C(O)Cc1ccccc1Nc1c(Cl)cccc1Cl [DICLOFENAC]
RESULT: 0.041

Ref: ChEMBL document CHEMBL3525927
